System: Vero
Assay: Cytotoxicity against african green monkey Vero cells
Assay type: cell-based
Conditions: Chlorocebus sabaeus
metric.name: pIC50
Numbers only, as −log10 of the molar value.

Q) Entry under review: "C/C=C(/C)C(=O)O[C@@H]1CC(C)(C)C[C@H]2C3=CC[C@@H]4[C@@]5(C)CCC(=O)C(C)(C)[C@@H]5CC[C@@]4(C)[C@]3(C)CC[C@@]12C(=O)O" . Reported pIC50?
A) 4.82
